The entries below come with measured protein stability index values attached.
B1: ZNF8 (parent)
chain: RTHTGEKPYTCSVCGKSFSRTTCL

variants of: B1; assay: protein stability index of a GFP-peptide fusion (GPS, HEK-293T) (PSI 1-6); higher = more stable; settings: c terminus: a fixed tail appended;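 also: lentivirally expressed fusions sorted by FACS into six bins by GFP to DsRed ratio, PSI derived from sequencing read proportions per bin multiplied by bin number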
Reply briefly: the number, and no unit.

Solved cases below.
>  <biosequence>
RTHTGEKPYTCYVCGKSFSRTTCL [S12Y]

>  <measurement>
2.27

$$$$
>  <biosequence>
RTHTGEKPYTASVCGKSFSRTTCL [C11A]

>  <measurement>
2.88

$$$$
>  <biosequence>
RTHTGEKPYTCSVCGKSFSRTTCK [L24K]

>  <measurement>
2.76

$$$$
>  <biosequence>
RTHTLEKPYTCSVCGKSFSRTTCL [G5L]

>  <measurement>
2.29

$$$$
>  <biosequence>
RTHTGEKPYYCSVCGKSFSRTTCL [T10Y]

>  <measurement>
1.98

$$$$
>  <biosequence>
RTHTGEKPNTCSVCGKSFSRTTCL [Y9N]

>  <measurement>
2.51

$$$$
>  <biosequence>
RTHTGEKPYTSSVCGKSFSRTTCL [C11S]

>  <measurement>
2.52

$$$$
>  <biosequence>
RTHTGEKPYTCDVCGKSFSRTTCL [S12D]

>  <measurement>
2.59

$$$$

protein stability index recorded for this variant, RTHTGEKPYTCSVCGKSFPRTTCL [S19P] , is 2.26

protein stability index recorded for this variant, RTHTGEKPYTCSVCGKSFSRNTCL [T21N] , is 1.99

protein stability index recorded for this variant, RTHTAEKPYTCSVCGKSFSRTTCL [G5A] , is 2.3

protein stability index recorded for this variant, YTHTGEKPYTCSVCGKSFSRTTCL [R1Y] , is 2.51

protein stability index recorded for this variant, RTHTGEKPYTCSVCWKSFSRTTCL [G15W] , is 1.43

protein stability index recorded for this variant, RTHTGEKPYTCSVCGKSTSRTTCL [F18T] , is 2.48

protein stability index recorded for this variant, RTHTGEKPYTCSVHGKSFSRTTCL [C14H] , is 2.89

protein stability index recorded for this variant, RTHTGKKPYTCSVCGKSFSRTTCL [E6K] , is 2.53

protein stability index recorded for this variant, RTHTGEKPYTHSVCGKSFSRTTCL [C11H] , is 1.99

protein stability index recorded for this variant, RTHTGEKPYTCSVCGKSFSRFTCL [T21F] , is 1.71
